Target: IgE antibodies of the individual allergic patient serum II/3
Assay: EAST inhibition, individual serum II/3
readout-label: inhibition value (inhibitor concentration at 25% inhibition) (mol/L)
Hi! Could you send only the number? It should be in mol/L, unit omitted.

- binder: "natural Phl p 5b, purified by affinity chromatography (protein) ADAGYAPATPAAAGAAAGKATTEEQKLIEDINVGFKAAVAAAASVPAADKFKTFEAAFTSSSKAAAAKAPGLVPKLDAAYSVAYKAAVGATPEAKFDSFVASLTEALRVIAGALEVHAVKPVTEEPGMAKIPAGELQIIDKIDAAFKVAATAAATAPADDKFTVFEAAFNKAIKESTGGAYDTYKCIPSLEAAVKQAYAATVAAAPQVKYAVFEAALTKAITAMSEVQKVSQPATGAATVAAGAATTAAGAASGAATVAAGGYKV"
  recorded-number: "5.1e-10"
- binder: "rPhl p 5b point mutant PM3 (A13C) (protein) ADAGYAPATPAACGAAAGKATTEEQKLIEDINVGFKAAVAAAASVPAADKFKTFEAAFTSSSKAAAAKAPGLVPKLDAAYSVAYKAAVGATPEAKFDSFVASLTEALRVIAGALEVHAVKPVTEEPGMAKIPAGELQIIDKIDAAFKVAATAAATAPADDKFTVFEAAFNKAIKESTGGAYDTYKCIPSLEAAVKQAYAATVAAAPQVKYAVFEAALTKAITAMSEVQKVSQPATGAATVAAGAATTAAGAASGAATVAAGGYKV"
  recorded-number: "5.5e-10"
- binder: "rPhl p 5b deletion mutant DM3 (deletion A154-T177, A220T) (protein) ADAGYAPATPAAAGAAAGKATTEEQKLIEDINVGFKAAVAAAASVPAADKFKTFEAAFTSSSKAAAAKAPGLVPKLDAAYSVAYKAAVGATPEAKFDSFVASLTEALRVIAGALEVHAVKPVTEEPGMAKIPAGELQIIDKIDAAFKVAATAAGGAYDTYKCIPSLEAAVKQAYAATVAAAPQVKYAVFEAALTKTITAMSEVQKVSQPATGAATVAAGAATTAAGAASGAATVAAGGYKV"
  recorded-number: "1.1e-06"
- binder: "recombinant Phl p 5b (wild type) (protein) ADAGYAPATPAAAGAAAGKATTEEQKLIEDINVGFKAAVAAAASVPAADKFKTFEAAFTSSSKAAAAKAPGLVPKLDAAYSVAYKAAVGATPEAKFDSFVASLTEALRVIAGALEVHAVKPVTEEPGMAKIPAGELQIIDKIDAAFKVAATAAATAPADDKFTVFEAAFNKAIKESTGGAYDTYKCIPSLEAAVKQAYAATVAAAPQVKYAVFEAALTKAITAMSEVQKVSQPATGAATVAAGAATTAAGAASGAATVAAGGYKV"
  recorded-number: "5.6e-10"
- binder: "rPhl p 5b deletion mutant DM1 (deletion K50-P132, D49L) (protein) ADAGYAPATPAAAGAAAGKATTEEQKLIEDINVGFKAAVAAAASVPAALAGELQIIDKIDAAFKVAATAAATAPADDKFTVFEAAFNKAIKESTGGAYDTYKCIPSLEAAVKQAYAATVAAAPQVKYAVFEAALTKAITAMSEVQKVSQPATGAATVAAGAATTAAGAASGAATVAAGGYKV"
  recorded-number: "1.2e-08"

I am curious: what inhibition value (inhibitor concentration at 25% inhibition) value has been reported for rPhl p 5b point mutant PM1 (N32D, D49L, K50A) (protein) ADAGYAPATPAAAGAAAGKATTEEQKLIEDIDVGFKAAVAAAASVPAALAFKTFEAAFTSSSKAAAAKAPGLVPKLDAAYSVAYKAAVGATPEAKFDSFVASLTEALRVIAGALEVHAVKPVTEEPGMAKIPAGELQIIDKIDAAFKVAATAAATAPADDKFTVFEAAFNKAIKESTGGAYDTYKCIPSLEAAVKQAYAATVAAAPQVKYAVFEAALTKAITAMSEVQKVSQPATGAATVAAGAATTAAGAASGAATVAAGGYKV ?
8.6e-10
